List of pIC50 values.
assay: Cytotoxicity against human A172 cells after 48 hrs by SRB assay; type: functional, cell-based; settings: A 172, 48 h
pIC50: −log10 of the molar value.
parameter: pIC50

{"smiles_str": "COc1cc(C(=O)/C=C/c2nccc3c2[nH]c2ccccc23)cc(OC)c1OC", "parameter": "pIC50", "measurement_qualifier": "<", "assay_result": 5.00}
{"smiles_str": "COc1ccc(C(=O)/C=C/c2nccc3c2[nH]c2ccccc23)cc1OC", "parameter": "pIC50", "measurement_qualifier": "=", "assay_result": 5.48}

* * *

List of IC50 values.
test system: MCF7; experiment: Cytotoxicity against human MCF7 cells after 48 hrs by SRB assay; type: functional, cell-based; conditions: MCF7, 48 h

{"smiles_str": "COc1cc(C(=O)/C=C/c2nccc3c2[nH]c2ccccc23)cc(OC)c1OC", "IC50 (µM)": 3.29}
{"smiles_str": "COc1ccc(C(=O)/C=C/c2nccc3c2[nH]c2ccccc23)cc1OC", "IC50 (µM)": 2.25}
